# experiment_summary: qHTS of pediatric cancer cell lines to identify multiple opportunities for drug repurposing: Primary screen for TC32 cells (AID 1347089); note: nearly all actives have a fitted effect of over 60% in size
# condition_context: TC32 Ewing sarcoma viability, CellTiter-Glo luminescence, 48 h; series mostly up to 45.8 µM
Records with an inconclusive call do not appear. The source made the active and inactive calls. Calls come from the whole dose curve; as a rule, active = well fitted cell-killing curve with a large enough effect; inconclusive = small, poorly fitted or top-dose-only effect; inactive = flat fitted curve, though single readings scatter.

compound	outcome
CN1C[C@H]2c3ccccc3Oc3ccc(Cl)cc3[C@@H]2C1	inactive
O=C(O)C=Cc1ccc(O)c(O)c1	inactive
CCCCCNC(=O)N1CCC(CN(Cc2ccc(Cl)cc2)Cc2ccc([N+](=O)[O-])s2)C1 (stereo not drawn)	inactive

====

# experiment_summary: qHTS for identification of novel therapeutic agents for treatment of microphthalmiaassociated transcription factor (MiT) renal cell carcinoma (RCC) (AID 1963991);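 note: curves scaled with 100% = DMSO viability and 0% = empty wells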
# condition_context: TFE3-RCC viability, CellTiter-Glo, 48 h; measured here: UOK124 Z-AUC; stronger effect = lower value
Records with an inconclusive call do not appear.
Below, each entry is listed with its recorded z-score.

compound	z-score
O=C(OCC#CCSc1nnc(-c2cccc3ccccc23)o1)c1cc2ccccc2s1	0.66
CN(C)c1cc(NC(=O)CNC(C)(C)C)c(O)c2c1C[C@@H]1C[C@H]3[C@H](N(C)C)C(=O)C(C(N)=O)=C(O)[C@@]3(O)C(=O)C1=C2O	0.166
C[C@]12CC[C@@H]3c4ccc(O)cc4C[C@@H](CCCCCCCCCS(=O)CCCC(F)(F)C(F)(F)F)[C@H]3[C@H]1CC[C@H]2O (stereo partly drawn)	0.607

====

# experiment_summary: Primary qHTS for inhibitors of nuclear receptor binding SET domain protein 2 (NSD2) in an isogenic RCH-ACV NSD2 p.E1099K mutant (9B) (AID 1645876); note: nearly all actives have a fitted effect of over 70% in size
# condition_context: RCH-ACV (leukaemia line) NSD2 E1099K (9B) viability, CellTiter-Glo, 72 h; series mostly up to 44.9 µM
Records with an inconclusive call do not appear. The source made the active and inactive calls. Calls come from the whole dose curve; as a rule, active = well fitted inhibition curve with a large enough effect; inconclusive = small, poorly fitted or top-dose-only effect; inactive = flat fitted curve, though single readings scatter.
Labels: TRUE = active, FALSE = inactive

compound	class
CCN1CCC[C@H]1CNC(=O)c1cc(S(N)(=O)=O)ccc1OC	FALSE
CC(C)(C)COc1ccc(-n2cc(C(=O)O)cn2)cc1C#N	FALSE
COc1cccc(-c2cc(=O)c3ccccc3o2)c1N	FALSE
O=c1[nH]cnc2c1ncn2[C@H]1CC[C@@H](CO)O1	FALSE
NC(=O)[C@@H](CCC(F)(F)F)N(Cc1ccc(-c2ncon2)cc1F)S(=O)(=O)c1ccc(Cl)cc1	TRUE
NS(=O)(=O)c1cccc2c1C(=O)c1cccc(O)c1C2=O	TRUE
COc1ccc2c(Oc3ccc(NC(=O)c4c(C)n(CC(C)(C)O)n(-c5ccccc5)c4=O)nc3)ccnc2c1	FALSE
N#Cc1ccc(NC(=O)Nc2ccccc2Br)c2n[nH]nc12	FALSE
O=C(NCCN1CCOCC1)c1ccc(Cl)cc1	FALSE
O=C1c2ccccc2-[n+]2ccc3c([nH]c4ccccc43)c21	TRUE
NC(CO)(CO)CCc1ccc(Sc2cccc(OCc3ccccc3)c2)cc1Cl	TRUE
O=C(O)c1cc(O)c2c(c1)C(=O)c1cccc(O)c1C2=O	FALSE
CC(=O)CCCCn1c(=O)c2c(ncn2C)n(C)c1=O	FALSE
NCCS	FALSE
Cc1ccccc1C(C(=O)NC1CCCCC1)N(C(=O)Cn1ccnc1C)c1cccc(F)c1 (stereo not given)	FALSE
COC1CCC(N(C(=O)C2CCC(C)CC2)c2cc(C3=CCCCC3)sc2C(=O)O)CC1 (stereo not given)	FALSE
NC1CCC(Nc2nc(Nc3ccc(C(=O)N4CCCCC4)cc3)c3ncn(-c4cccc(F)c4)c3n2)CC1 (stereo not given)	TRUE
CCN(CC)C(=O)c1ccc(O)c(OC)c1	FALSE
O=C(O)c1cc(-c2ccccc2)nc2ccccc12	FALSE
CC(C)n1cnc2c(NCCCCCCNC(=O)OC(C)(C)C)nc(NCCO)nc21	TRUE
